Just for reference, patent EP4603105A1 is where these values come from.

- targetOrTestSystem: GDP-bound KRAS wild-type protein (Homo sapiens, UniProt P01116)
- Sequence (P01116 1-188 isoform P01116-2): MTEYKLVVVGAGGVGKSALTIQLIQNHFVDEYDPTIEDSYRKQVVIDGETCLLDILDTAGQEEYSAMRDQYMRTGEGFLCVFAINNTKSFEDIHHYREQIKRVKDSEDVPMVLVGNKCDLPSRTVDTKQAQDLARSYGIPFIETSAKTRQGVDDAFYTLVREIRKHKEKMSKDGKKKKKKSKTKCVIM
- experimentNotes: Binding to KRAS by surface plasmon resonance (SPR), dissociation constant KD
- experimentalConditions: Single Cycle Kinetics, 1:1 binding model
assayMetric: Kd (nM)

>  <structureNotation>
CCO[C@@H]1C[C@H]2C(=O)NC3(CCC3)C(=O)N(C)[C@@H](C3CCCC3)C(=O)N(C)[C@H](C(=O)N3CCOCC3)CC(=O)N(C)[C@@H](CC)C(=O)N[C@@H]([C@@H](C)CC)C(=O)N(C)CC(=O)N(C)[C@H]3CC[C@@H](C)CN(C3=O)[C@@H](Cc3ccc(C(F)(F)F)cc3)C(=O)N(C)CC(=O)N[C@@H](CCc3cc(F)c(C(F)(F)F)c(F)c3)C(=O)N2C1

>  <measuredValue>
0.078

$$$$
>  <structureNotation>
CCO[C@@H]1C[C@H]2C(=O)NC3(CCC3)C(=O)N(C)[C@@H](C3CCCC3)C(=O)N(C)[C@H](C(=O)N3CCOCC3)CC(=O)N(C)[C@@H](CC)C(=O)N[C@@H]([C@@H](C)CC)C(=O)N3CC[C@H]3C(=O)N(C)[C@H]3C[C@@H](C)[C@@H](C)CN(C3=O)[C@@H](Cc3ccc(C(F)(F)F)cc3)C(=O)N(C)CC(=O)N[C@@H](CCc3cc(F)c(C(F)(F)F)c(F)c3)C(=O)N2C1

>  <measuredValue>
0.13

$$$$
>  <structureNotation>
CCO[C@@H]1C[C@H]2C(=O)NC3(CCC3)C(=O)N(C)[C@@H](C3CCCC3)C(=O)N(C)[C@H](C)CC(=O)N(C)[C@@H](CC3CCCC3)C(=O)N[C@@H]([C@@H](C)CC)C(=O)N(C)CC(=O)N(C)[C@H]3C/C=C\CCN(C3=O)[C@@H](Cc3ccc(C)cc3)C(=O)N(C)CC(=O)N[C@@H](CCc3cc(F)c(C(F)(F)F)c(F)c3)C(=O)N2C1

>  <measuredValue>
0.42

$$$$

---

The reader will find reported pIC50 values listed item by item below.
- Tested on: human lung cancer strain NCI-H441
- Assay type: cell-based
pIC50: −log10 of the molar value.
assayMetric: pIC50

>  <structureNotation>
CCCOC[C@H]1C(=O)N[C@@H]([C@@H](C)CC)C(=O)N(C)CC(=O)N(C)[C@H]2C/C=C\CCN(C2=O)[C@@H](Cc2ccc(C(F)(F)F)cc2)C(=O)N(C)CC(=O)N[C@@H](CCc2cc(F)c(C(F)(F)F)c(F)c2)C(=O)N2C[C@H](F)C[C@H]2C(=O)NC2(CC(C)(C)C2)C(=O)N(C)[C@@H](C2CCCC2)C(=O)N(C)[C@H](C(=O)N(C)CC)CC(=O)N1C

>  <measuredValue>
8.44

$$$$
>  <structureNotation>
C#CC[C@H]1C(=O)N[C@@H]([C@@H](C)CC)C(=O)N(C)CC(=O)N(C)[C@H]2C/C=C\CCN(C2=O)[C@@H](Cc2ccc(C(F)(F)F)cc2)C(=O)N(C)CC(=O)N[C@@H](CCc2cc(F)c(C(F)(F)F)c(F)c2)C(=O)N2C[C@H](F)C[C@H]2C(=O)NC2(CC(C)(C)C2)C(=O)N(C)[C@@H](C2CCCC2)C(=O)N(C)[C@H](C(=O)N(C)CC)CC(=O)N1C

>  <measuredValue>
8.51

$$$$
>  <structureNotation>
CCCN(C)C(=O)[C@@H]1CC(=O)N(C)[C@@H](CC(C)C)C(=O)N[C@@H](C2CCOCC2)C(=O)N(C)CC(=O)N(C)[C@H]2C/C=C\CCN(C2=O)[C@@H](Cc2ccc(C(F)(F)F)cc2)C(=O)N(C)CC(=O)N[C@@H](CCc2cc(F)c(C(F)(F)F)c(F)c2)C(=O)N2C[C@H](OCC)C[C@H]2C(=O)NC2(CC(C)(C)C2)C(=O)N(C)[C@@H](C2CCCC2)C(=O)N1C

>  <measuredValue>
7.17

$$$$
>  <structureNotation>
CC[C@H](C)[C@@H]1NC(=O)[C@H](CC(C)C)N(C)C(=O)C[C@@H](C(=O)N2CCOCC2)N(C)C(=O)[C@H](C2CCCC2)N(C)C(=O)C2(CCCCC2)NC(=O)[C@@H]2CCCN2C(=O)[C@H](CCc2cc(F)c(C(F)(F)F)c(F)c2)NC(=O)CN(C)C(=O)[C@H](Cc2ccc(C(F)(F)F)cc2)N2CCCCC[C@@H](C2=O)N(C)C(=O)CN(C)C1=O

>  <measuredValue>
6.83

$$$$
>  <structureNotation>
CCO[C@@H]1C[C@H]2C(=O)NC3(CCC3)C(=O)N(C)[C@@H](C(CC)CC)C(=O)N(C)[C@H](C(=O)N(C)C)CC(=O)N(C)[C@H]3CCCC/C=C/c4ccc(cc4)C[C@@H](C(=O)N(C)CC(=O)N[C@@H](CCc4ccc(Cl)c(Cl)c4)C(=O)N2C1)N1CC/C=C\C[C@@H](C1=O)N(C)C(=O)CN(C1CC1)C(=O)[C@H]([C@@H](C)CC)NC3=O

>  <measuredValue>
8.06

$$$$
>  <structureNotation>
CCO[C@@H]1C[C@H]2C(=O)N(C)C3(CC(C)(C)C3)C(=O)N(C)[C@@H](C3CCCC3)C(=O)N(C)[C@H](C(=O)N(C)C)CC(=O)N(C)[C@H]3CCCCCc4ccc(cc4)C[C@@H](C(=O)N(C)CC(=O)N[C@@H](CCc4ccc(C(F)(F)F)c(OC)c4)C(=O)N2C1)N1CC/C=C\C[C@@H](C1=O)N(C)C(=O)CN(C)C(=O)[C@H]([C@@H](C)CC)NC3=O

>  <measuredValue>
8.92

$$$$
>  <structureNotation>
CCC[C@H]1C(=O)N[C@@H](C(CC)CC)C(=O)N(C)CC(=O)N(C)[C@H]2C/C=C\CCN(C2=O)[C@@H](Cc2ccc(C)cc2)C(=O)N(C)CC(=O)N[C@@H](CCc2ccc(C(F)(F)F)c(Cl)c2)C(=O)N2C[C@H](OCC)C[C@H]2C(=O)NC2(CC(C)(C)C2)C(=O)N(C)[C@@H](CC(C)(C)C)C(=O)N(C)[C@H](C(=O)N(C)C)CC(=O)N1C

>  <measuredValue>
7.59

$$$$
>  <structureNotation>
CCO[C@@H]1C[C@H]2C(=O)NC3(CC(C)(C)C3)C(=O)N(C)[C@@H](C3CCCC3)C(=O)N(C)[C@H](C(=O)N(C)C)CC(=O)N(C)[C@@H](CC(C)C)C(=O)N[C@@H]([C@@H](C)CC)C(=O)N(C)CC(=O)N(C)[C@H]3C/C=C\CCN(C3=O)[C@@H](Cc3ccc(C(C)=O)cc3)C(=O)N(C)CC(=O)N[C@@H](CCc3ccc(C(F)(F)F)c(OC)c3)C(=O)N2C1

>  <measuredValue>
7.92

$$$$
>  <structureNotation>
CC[C@H](C)[C@@H]1NC(=O)[C@H](CC2CC2)N(C)C(=O)C[C@@H](C(=O)N(C)C)N(C)C(=O)[C@H](C2CCCC2)N(C)C(=O)C2(CCCC2)NC(=O)[C@@H]2CC(F)(F)CN2C(=O)[C@H](CCc2cc(F)c(C(F)(F)F)c(F)c2)NC(=O)CN(C)C(=O)[C@H](Cc2ccc(C(F)(F)F)cc2)N2CC/C=C\C[C@@H](C2=O)N(C)C(=O)CN(C)C1=O

>  <measuredValue>
8.08

$$$$
>  <structureNotation>
CCC[C@H]1C(=O)N[C@@H]([C@@H](C)CC)C(=O)N(C)CC(=O)N(C)[C@H]2C/C=C\CCN(C2=O)[C@@H](Cc2ccc(C)cc2)C(=O)N(C)CC(=O)N[C@@H](CCc2ccc(C(F)(F)F)c(Cl)c2)C(=O)N2C[C@H](OCC)C[C@H]2C(=O)NC2(CC(C)(C)C2)C(=O)N(C)[C@@H](CC(F)(F)F)C(=O)N(C)[C@H](C(=O)N(C)C)CC(=O)N1C

>  <measuredValue>
7.83

$$$$
>  <structureNotation>
CCCOC[C@H]1C(=O)N[C@@H]([C@@H](C)CC)C(=O)N(C)CC(=O)N(C)[C@H]2C/C=C\CCN(C2=O)[C@@H](Cc2ccc(C(F)(F)F)cc2)C(=O)N(C)CC(=O)N[C@@H](CCc2ccc(C(F)(F)F)c(OC)c2)C(=O)N2C[C@H](OCC)C[C@H]2C(=O)NC2(CC(C)(C)C2)C(=O)N(C)[C@@H](C2CCCC2)C(=O)N(C)[C@H](C(=O)N(C)C)CC(=O)N1C

>  <measuredValue>
8.70

$$$$

---

Recorded pIC50 by entry
- System: human lung cancer strain NCI-H441
- Assay type: cell-based
pIC50: −log10 of the molar value.
assayMetric: pIC50

>  <molecule>
C#CC[C@H]1C(=O)N[C@@H]([C@@H](C)CC)C(=O)N(C)CC(=O)N(C)[C@H]2C/C=C\CCN(C2=O)[C@@H](Cc2ccc(C)cc2)C(=O)N(C)CC(=O)N[C@@H](CCc2ccc(C(F)(F)F)c(Cl)c2)C(=O)N2CC3(CC3)C[C@H]2C(=O)NC2(CC(C)(C)C2)C(=O)N(C)[C@@H](C2CCCC2)C(=O)N(C)[C@H](C(=O)N(C)C)CC(=O)N1C [PP2982]

>  <measuredValue>
7.92

$$$$
>  <molecule>
CCO[C@@H]1C[C@H]2C(=O)NC3(CC(C)(C)C3)C(=O)N(C)[C@@H](C(CC)CC)C(=O)N(C)[C@H](C(=O)N(C)C)CC(=O)N(C)[C@@H](CC(C)C)C(=O)N[C@@H]([C@@H](C)CC)C(=O)N(C)CC(=O)N(C)[C@H]3C/C=C\CCN(C3=O)[C@@H](Cc3ccc(C)cc3)C(=O)N(C)CC(=O)N[C@@H](CCc3ccc(Cl)c(Cl)c3)C(=O)N2C1 [PP2185]

>  <measuredValue>
7.44

$$$$
